# SYSTEM TESTED: ErbB2 WT (Homo sapiens (Human))
# Sequence (P04626 23-1255): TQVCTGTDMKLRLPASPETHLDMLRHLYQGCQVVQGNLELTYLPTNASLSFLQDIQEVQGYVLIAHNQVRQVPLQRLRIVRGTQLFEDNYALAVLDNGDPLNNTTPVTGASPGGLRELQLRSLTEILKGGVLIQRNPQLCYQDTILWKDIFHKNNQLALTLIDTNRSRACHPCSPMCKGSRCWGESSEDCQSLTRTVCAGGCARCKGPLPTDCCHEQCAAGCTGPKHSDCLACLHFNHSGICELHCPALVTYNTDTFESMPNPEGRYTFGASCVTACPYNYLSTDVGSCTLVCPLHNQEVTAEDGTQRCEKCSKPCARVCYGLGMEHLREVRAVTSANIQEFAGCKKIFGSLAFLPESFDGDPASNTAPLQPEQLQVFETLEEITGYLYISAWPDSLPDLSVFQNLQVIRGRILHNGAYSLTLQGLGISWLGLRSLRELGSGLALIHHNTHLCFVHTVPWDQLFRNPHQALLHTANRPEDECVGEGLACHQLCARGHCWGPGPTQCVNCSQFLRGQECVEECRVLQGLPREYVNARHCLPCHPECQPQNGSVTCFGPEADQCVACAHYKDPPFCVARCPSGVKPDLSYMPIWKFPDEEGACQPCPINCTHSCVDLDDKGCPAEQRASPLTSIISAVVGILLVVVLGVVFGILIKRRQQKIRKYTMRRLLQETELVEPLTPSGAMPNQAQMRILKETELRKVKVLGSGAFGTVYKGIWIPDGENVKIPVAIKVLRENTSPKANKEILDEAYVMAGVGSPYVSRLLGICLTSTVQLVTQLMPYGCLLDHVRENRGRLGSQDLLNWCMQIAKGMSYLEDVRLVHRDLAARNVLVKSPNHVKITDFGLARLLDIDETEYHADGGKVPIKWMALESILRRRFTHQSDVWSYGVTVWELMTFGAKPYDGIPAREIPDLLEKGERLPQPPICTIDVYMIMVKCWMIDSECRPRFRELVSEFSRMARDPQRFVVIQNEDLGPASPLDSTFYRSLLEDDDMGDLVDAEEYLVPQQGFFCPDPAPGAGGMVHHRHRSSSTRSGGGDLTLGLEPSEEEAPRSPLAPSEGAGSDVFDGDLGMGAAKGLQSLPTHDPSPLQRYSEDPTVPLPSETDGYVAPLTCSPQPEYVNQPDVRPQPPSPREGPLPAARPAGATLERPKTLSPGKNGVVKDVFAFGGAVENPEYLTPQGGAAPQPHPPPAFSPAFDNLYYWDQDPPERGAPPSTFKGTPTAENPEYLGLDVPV
# PROTOCOL: ErbB Enzyme Assay (HTRF KinEASE-TK), Assay 2
# Assay type: biochemical
# MEASUREMENT CONTEXT: ErbB2 WT enzyme
pIC50: −log10 of the molar value.
Decision: pIC50 compared against 7; not below it gives condition met, below it gives condition not met.

Reported pIC50 at or above 7? C=CC(=O)N1CCCC[C@@H](c2ccc3ncnc(Nc4ccc(Oc5ccc6c(c5)ncn6C)c(C)c4F)c3n2)C1 (racemic) [Example 145]
condition met

* * *

IC50 overview
# SYSTEM TESTED: EGFR (Homo sapiens (Human))
# Sequence (P00533 25-1210): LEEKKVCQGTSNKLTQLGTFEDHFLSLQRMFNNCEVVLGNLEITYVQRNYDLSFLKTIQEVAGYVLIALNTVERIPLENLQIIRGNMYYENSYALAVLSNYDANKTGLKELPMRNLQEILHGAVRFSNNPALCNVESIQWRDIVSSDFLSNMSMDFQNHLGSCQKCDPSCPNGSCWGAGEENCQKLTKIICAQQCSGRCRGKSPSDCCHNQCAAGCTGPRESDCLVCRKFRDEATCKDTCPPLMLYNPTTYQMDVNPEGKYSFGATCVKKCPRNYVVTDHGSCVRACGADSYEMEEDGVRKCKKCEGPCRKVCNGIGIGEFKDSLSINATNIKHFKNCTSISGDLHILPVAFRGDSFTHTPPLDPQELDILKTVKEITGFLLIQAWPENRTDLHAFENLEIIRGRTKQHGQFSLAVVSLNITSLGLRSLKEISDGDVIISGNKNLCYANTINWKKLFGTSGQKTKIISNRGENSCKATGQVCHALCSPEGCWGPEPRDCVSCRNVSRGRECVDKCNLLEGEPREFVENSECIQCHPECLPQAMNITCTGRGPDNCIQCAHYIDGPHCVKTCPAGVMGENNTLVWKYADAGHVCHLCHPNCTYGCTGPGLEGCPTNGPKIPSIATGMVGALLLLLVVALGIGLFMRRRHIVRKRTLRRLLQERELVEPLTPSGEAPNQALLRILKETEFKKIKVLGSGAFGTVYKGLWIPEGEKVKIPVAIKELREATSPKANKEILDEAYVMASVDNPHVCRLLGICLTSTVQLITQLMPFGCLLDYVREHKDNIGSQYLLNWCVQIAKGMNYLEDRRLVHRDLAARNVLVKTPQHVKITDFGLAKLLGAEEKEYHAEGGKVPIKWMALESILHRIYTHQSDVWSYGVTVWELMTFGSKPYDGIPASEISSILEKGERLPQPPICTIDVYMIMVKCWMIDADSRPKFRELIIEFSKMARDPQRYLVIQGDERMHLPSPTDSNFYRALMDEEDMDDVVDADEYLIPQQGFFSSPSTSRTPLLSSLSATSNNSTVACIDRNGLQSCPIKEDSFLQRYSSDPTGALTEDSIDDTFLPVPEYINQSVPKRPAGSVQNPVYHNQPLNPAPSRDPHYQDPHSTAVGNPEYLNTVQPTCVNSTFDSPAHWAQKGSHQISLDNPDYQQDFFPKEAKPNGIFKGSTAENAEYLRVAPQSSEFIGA
# PROTOCOL: ErbB Enzyme Assay (HTRF KinEASE-TK), Assay 3
# Type: biochemical
# MEASUREMENT CONTEXT: EGFR enzyme assay

Recorded results for 3 compounds are shown here.
# COMPOUND, OBSERVATION TYPE, RECORDED MEASUREMENT
rows = [
    ("C=CC(=O)N(C)[C@@H]1CCN(c2ccc3ncnc(Nc4cc(C)c(Oc5ccn6ncnc6c5)cc4F)c3n2)C1", "IC50", "≥ 10 µM"),
    ("C=CC(=O)N1CCN(c2ccc3ncnc(Nc4ccc(Oc5ccn6ncnc6c5)c(Cl)c4F)c3n2)C[C@H]1C(C)(C)C", "IC50", "≥ 10 µM"),
    ("C=CC(=O)N1C[C@H]2CC[C@@H]1CN2c1ccc2ncnc(Nc3cc(C)c(Oc4cnc5c(c4)ncn5C)cc3F)c2n1", "IC50", "≥ 10 µM"),
]

// next item, IC50 requested
What does the record list as IC50 for C=CC(=O)N1CCCN(c2ccc3ncnc(Nc4cc(C)c(Oc5ccn6ncnc6c5)cc4F)c3n2)CC1(C)C ?
4.51 µM

* * *

Listing of recorded pIC50 by entry.
# SYSTEM TESTED: ErbB2 WT (Homo sapiens (Human))
# PROTOCOL: ErbB Enzyme Assay (HTRF KinEASE-TK), Assay 2
# Format: biochemical
# MEASUREMENT CONTEXT: ErbB2 WT enzyme
pIC50 here: minus log base 10 of the concentration, concentration in moles per litre.

Solved entries:
# COMPOUND, SYSTEM TESTED, pIC50
records = [
    ("CC#CC(=O)N1CC2CCC(C1)N2c1ccc2ncnc(Nc3ccc(Oc4ccn5ncnc5c4)c(C)c3F)c2n1 [Example 246]", "ErbB2 WT (Homo sapiens (Human))", 7.46),
    ("C=CC(=O)N1CCN(c2ccc3ncnc(Nc4ccc(Oc5ccc6c(c5)ncn6C)c(C)c4F)c3n2)C[C@@H]1C1CC1 [Example 162]", "ErbB2 WT (Homo sapiens (Human))", 6.47),
    ("C=CC(=O)N1[C@H](C)C[C@@H](c2ccc3ncnc(Nc4ccc(Oc5ccc6c(c5)ncn6C)c(C)c4F)c3n2)C[C@@H]1C [Example 166]", "ErbB2 WT (Homo sapiens (Human))", 7.19),
]

I'd like to know its pIC50. The compound in question is C=CC(=O)N1CCN(c2ccc3ncnc(Nc4ccc(Oc5cnc6c(c5)ncn6C)c(C)c4)c3n2)CC1 [Example 110]
7.24

Consider the compound C=CC(=O)N1CCC2CN(c3ccc4ncnc(Nc5ccc(Oc6ccn7ncnc7c6)c(Cl)c5)c4n3)CC21 (centres unmarked) [Example 70] and give its measured pIC50.
8.00

* * *

# SYSTEM TESTED: ErbB2 with Exon 20 YVMA insertion (HER2-YVMA) (Homo sapiens (Human), UniProt P04626, INS775YVMA)
# Sequence (P04626 other isoform, or with tags, fused parts or gaps ins YVMA behind 775): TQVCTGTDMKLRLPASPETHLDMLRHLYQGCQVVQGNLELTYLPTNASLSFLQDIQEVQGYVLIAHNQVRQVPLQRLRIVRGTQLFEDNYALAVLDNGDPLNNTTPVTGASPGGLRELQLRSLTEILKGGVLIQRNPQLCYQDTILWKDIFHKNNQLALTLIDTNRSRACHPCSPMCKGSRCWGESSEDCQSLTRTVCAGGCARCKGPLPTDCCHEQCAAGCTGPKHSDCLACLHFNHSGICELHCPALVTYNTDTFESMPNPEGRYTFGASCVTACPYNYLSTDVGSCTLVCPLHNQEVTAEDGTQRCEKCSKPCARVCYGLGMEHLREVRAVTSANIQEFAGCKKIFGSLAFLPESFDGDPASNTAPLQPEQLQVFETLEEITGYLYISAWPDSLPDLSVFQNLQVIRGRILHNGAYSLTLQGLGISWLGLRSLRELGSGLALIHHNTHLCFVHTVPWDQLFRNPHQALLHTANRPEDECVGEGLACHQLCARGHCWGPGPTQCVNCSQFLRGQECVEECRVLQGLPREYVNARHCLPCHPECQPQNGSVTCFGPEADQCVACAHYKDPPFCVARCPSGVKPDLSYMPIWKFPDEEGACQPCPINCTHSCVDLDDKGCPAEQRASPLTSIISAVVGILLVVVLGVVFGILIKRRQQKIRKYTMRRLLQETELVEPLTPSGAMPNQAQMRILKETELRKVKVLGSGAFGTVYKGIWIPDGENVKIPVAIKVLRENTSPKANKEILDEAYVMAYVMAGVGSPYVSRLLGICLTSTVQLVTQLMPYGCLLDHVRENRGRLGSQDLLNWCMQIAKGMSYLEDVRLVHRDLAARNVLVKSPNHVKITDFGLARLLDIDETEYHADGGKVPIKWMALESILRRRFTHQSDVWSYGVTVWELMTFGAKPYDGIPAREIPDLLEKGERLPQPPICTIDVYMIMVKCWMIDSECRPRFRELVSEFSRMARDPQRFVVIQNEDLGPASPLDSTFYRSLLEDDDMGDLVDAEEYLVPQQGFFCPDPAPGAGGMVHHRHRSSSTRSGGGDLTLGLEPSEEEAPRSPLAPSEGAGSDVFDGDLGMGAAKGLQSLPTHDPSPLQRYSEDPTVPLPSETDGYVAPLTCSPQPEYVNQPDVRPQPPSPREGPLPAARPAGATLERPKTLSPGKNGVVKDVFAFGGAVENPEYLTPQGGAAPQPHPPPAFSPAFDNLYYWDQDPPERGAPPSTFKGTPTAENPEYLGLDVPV
# PROTOCOL: Cellular Phosphorylation Assay, Assay 4 (constitutive ErbB2 phosphorylation, NIH 3T3 cells)
# Assay type: cell-based
# MEASUREMENT CONTEXT: ErbB2 YVMA phosphorylation
OBSERVATION TYPE: IC50 (µM)
Number in µM, nothing else.

Past entries and their recorded results:
# COMPOUND, UNITS SYMBOL, IC50
records = [
    ("C=CC(=O)N1CCC[C@@H](c2ccc3ncnc(Nc4cc(C)c(Oc5ccc6c(c5)ncn6C)cc4F)c3n2)C1 (racemic) [Example 129]", "µM", 0.0166),
    ("C=CC(=O)N1[C@H](C)C[C@@H](c2ccc3ncnc(Nc4ccc(Oc5ccc6c(c5)ncn6C)c(C)c4F)c3n2)C[C@@H]1C [Example 166]", "µM", 0.0646),
]

# lookup: IC50 of CC#CC(=O)N1CCN(c2ccc3ncnc(Nc4ccc(Oc5ccn6ncnc6c5)c(C)c4F)c3n2)C[C@@H]1COC [Example 180]
0.0734

Returns the measured IC50 for the input compound. Input: CC#CC(=O)N1CCC[C@@H](c2ccc3ncnc(Nc4ccc(Oc5ccn6ncnc6c5)c(C)c4F)c3n2)CC1 (single isomer, unassigned) [Example 211]
0.317
